# systemTested: EcTrpRS (Escherichia coli, UniProt P00954)
# Construct: hexahistidine tag (C); made in house; host or cells: Escherichia coli BL21(DE3)
# experiment: Isothermal titration calorimetry (ITC) to EcTrpRS
# Format: binding
# setupConditions: in the presence of 1 mM ATP; read-out: Kd (binding affinity) to EcTrpRS (ITC)
pKd: −log10 of the molar value.
measuredMetric: pKd

testSmiles: CN=C1NC(=O)[C@H]([C@H](C)c2c[nH]c3ccccc23)O1
measuredMetric: pKd
resultNumber: 6.30
